For each entry below, report its TGI value.
- Tested on: SN12C renal
- method-description: NCI tumour cell line growth inhibition, 48 h

Entry COP1(=O)NCc2ncccc2O1 (stereo not drawn) , TGI reported as > 100 µM

Entry Cc1ccc(S(=O)(=O)Oc2cc(S(=O)(=O)O)cc3cc(S(=O)(=O)O)cc(N)c23)cc1 , TGI reported as > 100 µM

Entry COc1ccc2c(c1)nc1n2C(c2c(F)cccc2Cl)SC1 (stereo not drawn) , TGI reported as > 100 µM

Entry O=C1CC(=O)c2c(Cl)sc(Cl)c21 , TGI reported as > 100 µM

Entry CC(=O)O[C@H]1CC[C@@]2(C)C(=CC[C@@H]3[C@@H]2CC[C@]2(C)C(=N/O)/C(=C/c4ccc([N+](=O)[O-])cc4)C[C@@H]32)C1 , TGI reported as 87.3 µM

Entry CN(C)CC(CO)(CN(C)C)CN(C)C , TGI reported as > 100 µM

Entry Cc1c(CCCl)c(N=[N+]=[N-])n2c(nc3ccccc32)c1C#N , TGI reported as 3.13 µM

Entry CC(C)CC(=O)NC(NC(C)C)(C(F)(F)F)C(F)(F)F , TGI reported as > 100 µM

Entry CCC1CC(=O)N(SCC(N)C(=O)O)C1=O (stereo not drawn) , TGI reported as > 100 µM

Entry CC12CC[C@H](O)C(C)(C)[C@H]1CC[C@](C)(O)C2COc1ccc2ccc(=O)oc2c1 (stereo partly drawn) , TGI reported as > 100 µM

Entry C#COc1cccc(Nc2ncnc3ncc(NC(=O)CCl)cc23)c1 , TGI reported as > 62.5 µM

Entry CN1c2ccccc2S(=O)(=O)n2c(COc3ccc(Cl)cc3)nnc21 , TGI reported as > 100 µM

Entry O=C1C2CCC(C2)C12CC1(c3ccccc3)C(=O)c3ccccc3N1O2 (stereo not drawn) , TGI reported as > 100 µM

Entry COc1ccc(-n2c(C)nc3ccc(NC4OCC(O)C(O)C4O)cc3c2=O)cc1 (stereo not drawn) , TGI reported as > 100 µM

Entry COc1ccc(C2ON(c3ccccn3)CC=C2C)cc1 (stereo not drawn) , TGI reported as > 100 µM

Entry CN(C)CCN=Cc1c2ccccc2c(=O)n2c1oc1ccccc12 , TGI reported as 17.1 µM

Entry COC(=O)Nc1nc2cc3c(cc2s1)OCCO3 , TGI reported as > 50 µM

Entry N#CC1CCN2N=C(c3ccccc3)SC12c1ccccc1 (stereo not drawn) , TGI reported as > 100 µM

Entry N#CC(C#N)=CSc1ccccc1 , TGI reported as 59.8 µM

Entry O=C1C(Cl)=C(Nc2cccc(O)c2)C(=O)N1c1ccc(Cl)c(Cl)c1 , TGI reported as 39.4 µM

Entry CCOc1ccc(N=Nc2ccc3oc(=O)c(C(=O)Nc4ccc(OC)cc4)cc3c2)cc1 , TGI reported as > 100 µM

Entry CCOC(=O)C1=C(C)NC(=O)NC1c1coc2cc(C)cc(C)c2c1=O (stereo not drawn) , TGI reported as > 100 µM

Entry CCOP(=O)(OCC)C(Cc1ccc(OC)c(OC)c1)N=C(c1ccccc1)c1ccccc1 (stereo not drawn) , TGI reported as > 100 µM
